- System: HOP-92 NSCLC
- protocol: NCI tumour cell line growth inhibition, 48 h
Where a SMILES comes first, the peptide text is derived from it. [ ]: non-standard residue; d: D form. ξ: configuration not given here. ξLac(3-iPr) = CC(C)CC(O)C(=O)O; NMeV = CN[CH](C(=O)O)C(C)C; NMeA = CN[CH](C)C(=O)O; βAla = NCCC(=O)O
measured-attribute: TGI

Some solved entries appear below for comparison.
>>> value_measured("O=C(N/N=C/c1ccc([N+](=O)[O-])cc1)Nc1ccc(Br)cc1")
"> 100 µM"
>>> value_measured("Oc1c(Br)cc(/C=C/c2cccc(/C=C/c3cc(Br)c(O)c(Br)c3)n2)cc1Br")
"29.6 µM"
>>> value_measured("CC(C)C[C@H](NC(=O)[C@H](Cc1ccc(F)cc1)NC(=O)c1ccccn1)B(O)O")
"< 0.01 µM"
>>> value_measured("O=C1c2ccccc2C2C1C(c1ccccc1)C1(Cc3ccccc3C1=O)C2c1ccccc1 (centres undefined)")
"> 100 µM"
>>> value_measured("C/C(=N\\NC(=S)SCc1ccccc1)c1ccccn1")
"2.14 µM"

Give TGI for each listed item.
1. CCC(C)C1NC(=O)C2CCCN2C(=O)C(CC(C)C)OC(=O)CCNC(=O)C(C)N(C)C(=O)C(C(C)C)N(C)C1=O (centres undefined) (cyclo([ξLac(3-iPr)]PI[NMeV][NMeA][βAla]); configuration not given here)
2. CCOC(=O)c1cc(-c2ccccc2)[nH]c1N/N=C/c1ccc(Cl)cc1

1. > 100 µM
2. > 100 µM

Give TGI for each listed item.
1. Fc1cccc(-n2ccc(-c3ccccc3)nc2=S)c1
2. O=c1c(-c2ccccc2F)coc2cc(F)ccc12
3. C=C1C(=O)O[C@H]2[C@H]1CC/C(COC(=O)C(C)c1ccc(CC(C)C)cc1)=C\CC[C@@]1(C)O[C@@H]21 (some centres undefined)
4. CC(C)(C)OC(=O)NCCNCCNc1ccccc1
5. NS(=O)(=O)c1ccc(N(/C=C/C(=O)C(F)(F)F)Cc2ccc(Cl)cc2)cc1
6. COc1cc2c(cc1O)C1(Cc3ccc4c(c3C1=O)OCO4)N(C)CC2 (centres undefined)

1. 41.6 µM
2. > 100 µM
3. 2.14 µM
4. > 100 µM
5. 40.9 µM
6. > 100 µM

Give TGI for each listed item.
1. CSc1nc2c(c(N3CCOCC3)n1)C(O)n1c(nc3ccccc31)S2 (centres undefined)
2. C=C1CC2CC(O)CC(C1)C2 (centres undefined)
3. CC1(C(=O)Nc2ccc3ccccc3c2)CC2(C)CC(C)(C1)C(O)NC2=O (centres undefined)

["> 100 µM", "> 100 µM", "> 100 µM"]

Give TGI for each listed item.
1. COC(=O)C(COC(=O)/C=C/c1ccc(OC(C)=O)c(OC(C)=O)c1)NC(=O)/C=C/c1ccc(OC(C)=O)c(OC(C)=O)c1 (centres undefined)
2. CC1(C)NCCC[C@]2(C)[C@H]3CC[C@@H]4[C@H]5[C@H](C(=O)/C=C/c6ccccn6)CC[C@]5(CO)CC[C@@]4(C)[C@]3(C)CC[C@@H]12
3. CCOc1ccccc1-c1nc2c(s1)C(=O)c1ccccc1C2=O

1. > 100 µM
2. 7.73 µM
3. 25 µM
